- STUDY_SYSTEM: CD19 (UniProt P15391)
- EXPERIMENTAL_DETAILS: cell-based or functional assay
METRIC_NAME: Average Signal To Noise (BFP reporter MFI, CD19+ K562 vs K562; no CAR stimulation)

SUBSTANCE	MEASURED_RESULT
hingeNotch STS variant with PTPRF STS (KRKRTH) (receptor)	10.5
hingeNotch STS variant with CSF1R STS (KYKQKPK) (receptor)	3.09
hingeNotch STS variant with DAG1 STS (RKKRKGK) (receptor)	2.82
hingeNotch STS variant with GHR STS (KQQRIK) (receptor)	2.22
hingeNotch STS variant with Notch 2 STS (KRKRKH) (receptor)	5.24
hingeNotch STS variant with KL STS (KKGRRSYK) (receptor)	3.72
hingeNotch STS variant with Notch 4 STS (RRRREH) (receptor)	10.3
hingeNotch STS variant with KCNE3 STS (RSRKVDKR) (receptor)	9.78

Values from patent US20220133797A1
